# assay: Rat plasma fraction unbound
# Assay type: in vitro ADME
# experimental conditions: read-out: Rat Fu Plasma
Parameter: fraction unbound. Scope: all listed entries.
Field format: numeric only.

These recorded examples may help you get a feel for the data.
## Task Give reported fraction unbound value for c1cnc2[nH]nc(Nc3ccc4c(OCC5CCOCC5)nccc4c3)c2c1 [Compound 77]
## Result 0.008

## Task Give reported fraction unbound value for c1cnc2[nH]nc(Nc3ccc4c(O[C@H]5CCOC5)nccc4c3)c2c1 [Compound 66]
## Result 0.047

## Task Give reported fraction unbound value for c1cc2cc(Nc3n[nH]c4nccnc34)ccc2c(OCC2COCCO2)n1 (stereo not drawn) [Compound 86]
## Result 0.057

Continuing:
## Task Give reported fraction unbound value for CO[C@H](C)COc1nccc2cc(Nc3n[nH]c4cccnc34)ccc12 [Compound 70]
## Result 0.032

## Task Give reported fraction unbound value for CCOCCOc1nccc2cc(Nc3n[nH]c4cccnc34)ccc12 [Compound 69]
## Result 0.023

## Task Give reported fraction unbound value for c1cnc2c(Nc3ccc4c(OCC5CCCCO5)nccc4c3)n[nH]c2c1 (stereo not drawn) [Compound 56]
## Result 0.014

## Task Give reported fraction unbound value for c1cnc2c(Nc3ccc4c(O[C@@H]5CCCOC5)nccc4c3)n[nH]c2c1 [Compound 62]
## Result 0.038

## Task Give reported fraction unbound value for c1cnc2[nH]nc(Nc3ccc4c(OCC5CCOC5)nccc4c3)c2c1 (stereo not drawn) [Compound 79]
## Result 0.019

## Task Give reported fraction unbound value for c1cnc2c(Nc3ccc4c(OCC5COCCO5)nccc4c3)n[nH]c2c1 (stereo not drawn) [Compound 73]
## Result 0.039

## Task Give reported fraction unbound value for c1cnc2[nH]nc(Nc3ccc4c(O[C@@H]5CCOC5)nccc4c3)c2c1 [Compound 65]
## Result 0.043

###

# target or test system: 3A4 (Homo sapiens (Human), UniProt P08684)
# Sequence (P08684 whole entry): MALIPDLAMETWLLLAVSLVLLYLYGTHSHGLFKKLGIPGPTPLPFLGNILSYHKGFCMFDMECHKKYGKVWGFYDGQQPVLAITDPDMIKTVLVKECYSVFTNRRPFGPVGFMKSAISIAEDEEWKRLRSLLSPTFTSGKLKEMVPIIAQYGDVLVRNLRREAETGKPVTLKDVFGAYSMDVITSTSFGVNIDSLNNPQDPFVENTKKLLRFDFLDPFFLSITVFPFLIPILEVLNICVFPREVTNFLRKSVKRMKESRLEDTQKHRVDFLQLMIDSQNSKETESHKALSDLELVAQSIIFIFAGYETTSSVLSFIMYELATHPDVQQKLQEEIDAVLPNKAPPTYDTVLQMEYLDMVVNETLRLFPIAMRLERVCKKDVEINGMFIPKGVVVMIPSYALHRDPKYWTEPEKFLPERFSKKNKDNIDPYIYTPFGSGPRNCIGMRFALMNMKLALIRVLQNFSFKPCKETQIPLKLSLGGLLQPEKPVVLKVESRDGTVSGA
# assay: CYP 3A4 inhibition
# Format: in vitro ADME
test readout: IC50

## Task Give reported IC50 value for c1cnc2c(Nc3ccc4c(O[C@H]5CCCOC5)nccc4c3)n[nH]c2c1 [Compound 61]
## Result 4.29 µM

## Task Give reported IC50 value for c1cc2cc(Nc3n[nH]c4nccnc34)ccc2c(OCC2CCOC2)n1 (stereo not drawn) [Compound 85]
## Result > 30 µM

# input for lookup
## Task Give reported IC50 value for COCCOc1nccc2cc(Nc3n[nH]c4nccnc34)ccc12 [Compound 81]
## Result > 30 µM

###

# target or test system: UniProt P08684
Parameter: pIC50. Scope: all listed entries.
Hey, just a heads up that pIC50 is the negative log base 10 of the concentration in molar.

## Task Specify pIC50 for `c1cnc2c(Nc3ccc4c(OC5CCOCC5)nccc4c3)n[nH]c2c1` , system UniProt P08684.
## Result 4.91

Continuing:
## Task Specify pIC50 for c1cnc2c(Nc3ccc4c(OCC5COCCO5)nccc4c3)n[nH]c2c1 (centres unmarked) , system UniProt P08684.
## Result 4.53

## Task Specify pIC50 for `c1cnc2c(Nc3ccc4c(O[C@@H]5CCCOC5)nccc4c3)n[nH]c2c1` , system UniProt P08684.
## Result 5.32

## Task Specify pIC50 for c1cnc2c(Nc3ccc4c(OCC5CCCOC5)nccc4c3)n[nH]c2c1 (centres unmarked) , system UniProt P08684.
## Result 4.64

## Task Specify pIC50 for c1cnc2c(Nc3ccc4c(OCC5CCCCO5)nccc4c3)n[nH]c2c1 (centres unmarked) , system UniProt P08684.
## Result 4.65

###

Parameter: fraction unbound. Scope: all listed entries.
# assay: Rat brain fraction unbound
# Type: in vitro ADME
# experimental conditions: read-out: Rat Fu Brain
Field format: numeric only.

These recorded examples may help you get a feel for the data.
## Task Give reported fraction unbound value for c1cnc2c(Nc3ccc4c(OCC5COCCO5)nccc4c3)n[nH]c2c1 (stereo not drawn) [Compound 73]
## Result 0.01

## Task Give reported fraction unbound value for CCOCCOc1nccc2cc(Nc3n[nH]c4cccnc34)ccc12 [Compound 69]
## Result 0.005

## Task Give reported fraction unbound value for c1cnc2[nH]nc(Nc3ccc4c(OCC5CCCCO5)nccc4c3)c2c1 (stereo not drawn) [Compound 76]
## Result 0.001

Continuing:
## Task Give reported fraction unbound value for c1cnc2[nH]nc(Nc3ccc4c(O[C@H]5CCOC5)nccc4c3)c2c1 [Compound 66]
## Result 0.006

## Task Give reported fraction unbound value for c1cnc2c(Nc3ccc4c(O[C@H]5CCOC5)nccc4c3)n[nH]c2c1 [Compound 64]
## Result 0.007

## Task Give reported fraction unbound value for COCCOc1nccc2cc(Nc3n[nH]c4ncccc34)ccc12 [Compound 74]
## Result 0.007

###

Parameter: fraction unbound. Scope: all listed entries.
# assay: Human plasma fraction unbound
# Assay type: in vitro ADME
# experimental conditions: read-out: Human Fu Plasma
Field format: numeric only.

These recorded examples may help you get a feel for the data.
## Task Give reported fraction unbound value for c1cnc2c(Nc3ccc4c(OCC5CCCOC5)nccc4c3)n[nH]c2c1 (stereo not drawn)
## Result 0.009

## Task Give reported fraction unbound value for `c1cnc2c(Nc3ccc4c(O[C@H]5CCOC5)nccc4c3)n[nH]c2c1`
## Result 0.02

## Task Give reported fraction unbound value for `c1cnc2c(Nc3ccc4c(O[C@H]5CCCOC5)nccc4c3)n[nH]c2c1`
## Result 0.028

## Task Give reported fraction unbound value for c1cc2cc(Nc3n[nH]c4nccnc34)ccc2c(OCC2CCOC2)n1 (stereo not drawn)
## Result 0.026

Continuing:
## Task Give reported fraction unbound value for `COCCOc1nccc2cc(Nc3n[nH]c4nccnc34)ccc12`
## Result 0.032

## Task Give reported fraction unbound value for c1cc2cc(Nc3n[nH]c4nccnc34)ccc2c(OCC2COCCO2)n1 (stereo not drawn)
## Result 0.063

## Task Give reported fraction unbound value for `c1cnc2c(Nc3ccc4c(OCC5CCOCC5)nccc4c3)n[nH]c2c1`
## Result 0.008

## Task Give reported fraction unbound value for `C[C@H]1C[C@H](Oc2nccc3cc(Nc4n[nH]c5ncccc45)ccc23)CO1`
## Result 0.01

## Task Give reported fraction unbound value for c1cnc2[nH]nc(Nc3ccc4c(OCC5COCCO5)nccc4c3)c2c1 (stereo not drawn)
## Result 0.033

## Task Give reported fraction unbound value for c1cnc2c(Nc3ccc4c(OCC5CCOC5)nccc4c3)n[nH]c2c1 (stereo not drawn)
## Result 0.015

## Task Give reported fraction unbound value for `CCOCCOc1nccc2cc(Nc3n[nH]c4cccnc34)ccc12`
## Result 0.017

## Task Give reported fraction unbound value for c1cnc2[nH]nc(Nc3ccc4c(OCC5CCOC5)nccc4c3)c2c1 (stereo not drawn)
## Result 0.018

## Task Give reported fraction unbound value for c1cnc2c(Nc3ccc4c(OCC5CCCCO5)nccc4c3)n[nH]c2c1 (stereo not drawn)
## Result 0.007

## Task Give reported fraction unbound value for `c1cnc2[nH]nc(Nc3ccc4c(O[C@H]5CCOC5)nccc4c3)c2c1`
## Result 0.019

## Task Give reported fraction unbound value for `CO[C@H](C)COc1nccc2cc(Nc3n[nH]c4ncccc34)ccc12`
## Result 0.023

## Task Give reported fraction unbound value for `c1cnc2[nH]nc(Nc3ccc4c(O[C@@H]5CCOC5)nccc4c3)c2c1`
## Result 0.028

## Task Give reported fraction unbound value for `c1cnc2c(Nc3ccc4c(O[C@@H]5CCOC5)nccc4c3)n[nH]c2c1`
## Result 0.018

## Task Give reported fraction unbound value for `CO[C@H](C)COc1nccc2cc(Nc3n[nH]c4cccnc34)ccc12`
## Result 0.017

###

# assay: Brain-plasma partition
# Assay type: in vivo
# experimental conditions: rat, unbound brain-plasma ratio, read-out: Brain-Plasma Kp,ω
Parameter: unbound brain-to-plasma partition coefficient (Kp,uu). Scope: all listed entries.

## Task Give reported unbound brain-to-plasma partition coefficient (Kp,uu) value for `CCOCCOc1nccc2cc(Nc3n[nH]c4cccnc34)ccc12`
## Result 0.27

Continuing:
## Task Give reported unbound brain-to-plasma partition coefficient (Kp,uu) value for c1cnc2[nH]nc(Nc3ccc4c(OCC5COCCO5)nccc4c3)c2c1 (stereo not shown)
## Result 0.09

## Task Give reported unbound brain-to-plasma partition coefficient (Kp,uu) value for `c1cnc2c(Nc3ccc4c(O[C@@H]5CCCOC5)nccc4c3)n[nH]c2c1`
## Result 0.36

## Task Give reported unbound brain-to-plasma partition coefficient (Kp,uu) value for `CCOCCOc1nccc2cc(Nc3n[nH]c4ncccc34)ccc12`
## Result 0.13

## Task Give reported unbound brain-to-plasma partition coefficient (Kp,uu) value for `c1cnc2[nH]nc(Nc3ccc4c(OCC5CCOCC5)nccc4c3)c2c1`
## Result 0.4

## Task Give reported unbound brain-to-plasma partition coefficient (Kp,uu) value for c1cc2cc(Nc3n[nH]c4nccnc34)ccc2c(OCC2CCCCO2)n1 (stereo not shown)
## Result 0.24

## Task Give reported unbound brain-to-plasma partition coefficient (Kp,uu) value for c1cc2cc(Nc3n[nH]c4nccnc34)ccc2c(OCC2CCOC2)n1 (stereo not shown)
## Result 0.45
